The reader will find reported pKi values listed item by item below.
# STUDY_SYSTEM: human kisspeptin receptor (Homo sapiens (Human))
# ASSAY_SUMMARY: Human KISS1R binding assay (membrane competition binding)
# CONDITION_INFO: 90 min at room temperature; competition with 0.2 nM [125I]-metastin (45-54); Flp-In T-Rex 293 kisspeptin membranes; metal complexes nonradioactive Ga, In, Lu; read-out: hKiSSR Binding Ki (90 min)
pKi: −log10 of the molar value. Square brackets hold non-standard residues; d marks the D form. Peptide text beside a SMILES is read from it. * marks the point of attachment. DOTA = O=C(O)CN1CCN(CC(=O)O)CCN(CC(=O)*)CCN(CC(=O)O)CC1; Gly(N-(3-F-4-Me-benzyl)) = Cc1ccc(CNCC(=O)*)cc1F; Phe(3-F) = N[C@@H](Cc1cccc(F)c1)C(=O)O; Trx = NC[C@H]1CC[C@H](C(=O)O)CC1; d4Pal = N[C@H](Cc1ccncc1)C(=O)O; Cha = N[C@@H](CC1CCCCC1)C(=O)O; Api = NC1(C(=O)O)CCNCC1; Ahx = NCCCCCC(=O)O; azaGly = NNC(=O)O

Sample answers from the record:
Q: Note pKi for the molecule shown: Cc1ccc(CNCC(=O)N2CCC(NC(=O)[C@H](CC(C)C)NC(=O)NNC(=O)[C@H](Cc3cccc(F)c3)NC(=O)[C@@H](NC(=O)[C@H](CC(N)=O)NC(=O)[C@@H](CCC(=O)O)NC(=O)[C@H]3CC[C@H](CNC(=O)CN4CCN(CC(=O)O)CCN(CC(=O)O)CCN(CC(=O)O)CC4)CC3)[C@@H](C)O)(C(=O)N[C@@H](Cc3c[nH]c4ccccc34)C(N)=O)CC2)cc1F [Compound 161] ({DOTA-Trx}-[dE]NT[Phe(3-F)][azaGly]L[Api](Gly(N-(3-F-4-Me-benzyl)))W-NH2)
Result: > 8.00

Q: Determine from records and report pKi for Cc1ccc(CNCC(=O)N2CCC(NC(=O)[C@H](CC(C)C)NC(=O)NNC(=O)[C@H](Cc3ccccc3)NC(=O)[C@@H](N)CCCCNC(=O)CN3CCN(CC(=O)O)CCN(CC(=O)O)CCN(CC(=O)O)CC3)(C(=O)N[C@@H](Cc3c[nH]c4ccccc34)C(N)=O)CC2)cc1F [Compound 37] (H-K(DOTA)F[azaGly]L[Api](Gly(N-(3-F-4-Me-benzyl)))W-NH2)
Result: > 8.00

// next entry
Q: Tell us which pKi value is on record for Cc1ccc(CNCC(=O)N2CCC(NC(=O)[C@H](CC(C)C)NC(=O)NNC(=O)[C@H](CC3CCCCC3)NC(=O)[C@@H](NC(=O)[C@H](CC(N)=O)NC(=O)[C@@H](Cc3ccncc3)NC(=O)CCCCCNC(=O)CN3CCN(CC(=O)O)CCN(CC(=O)O)CCN(CC(=O)O)CC3)[C@@H](C)O)(C(=O)N[C@@H](Cc3c[nH]c4ccccc34)C(N)=O)CC2)cc1F [Compound 314] ({DOTA-Ahx}-[d4Pal]NT[Cha][azaGly]L[Api](Gly(N-(3-F-4-Me-benzyl)))W-NH2)
Result: > 8.00

====

# STUDY_SYSTEM: human kisspeptin receptor (Homo sapiens (Human), UniProt Q969F8)
# Sequence (Q969F8 whole entry): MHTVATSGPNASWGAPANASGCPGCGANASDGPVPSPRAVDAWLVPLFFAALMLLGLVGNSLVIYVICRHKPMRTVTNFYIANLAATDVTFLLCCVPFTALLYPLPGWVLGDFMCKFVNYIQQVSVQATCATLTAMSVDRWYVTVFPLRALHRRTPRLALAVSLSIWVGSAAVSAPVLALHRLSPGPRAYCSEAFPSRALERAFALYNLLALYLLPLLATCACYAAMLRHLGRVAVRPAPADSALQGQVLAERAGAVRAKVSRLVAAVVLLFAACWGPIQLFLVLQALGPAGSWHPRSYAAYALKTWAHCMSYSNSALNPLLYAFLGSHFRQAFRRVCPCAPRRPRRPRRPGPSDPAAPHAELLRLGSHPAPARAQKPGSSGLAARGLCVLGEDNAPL
# ASSAY_SUMMARY: Human KISS1R binding assay (membrane competition binding)
# CONDITION_INFO: 90 min at room temperature; competition with 0.2 nM [125I]-metastin (45-54); Flp-In T-Rex 293 kisspeptin membranes; metal complexes nonradioactive Ga, In, Lu; read-out: hKiSSR Binding Ki (90 min)
Square brackets hold non-standard residues; d marks the D form. Peptide text beside a SMILES is read from it. * marks the point of attachment. DOTA = O=C(O)CN1CCN(CC(=O)O)CCN(CC(=O)*)CCN(CC(=O)O)CC1; Gly(N-(3-F-4-Me-benzyl)) = Cc1ccc(CNCC(=O)*)cc1F; Api(1-amidino) = N=C(N)N1CCC(N)(C(=O)O)CC1; 4Amb = NCc1ccc(C(=O)O)cc1; Api = NC1(C(=O)O)CCNCC1; Ahx = NCCCCCC(=O)O; azaGly = NNC(=O)O
OBSERVATION_TYPE: Ki

Q: Retrieve Ki measured for Cc1ccc(CNCC(=O)N2CCC(NC(=O)[C@H](CC(C)C)NC(=O)NNC(=O)[C@H](Cc3ccccc3)NC(=O)[C@H](C)NC(=O)[C@H](CC(N)=O)NC(=O)[C@@H](Cc3c[nH]c4ccccc34)NC(=O)[C@@H](Cc3ccc(O)cc3)NC(=O)CCCCCNC(=O)CN3CCN(CC(=O)O)CCN(CC(=O)O)CCN(CC(=O)O)CC3)(C(=O)N[C@@H](CC(C)C)C(N)=O)CC2)cc1F [Compound 113] ({DOTA-Ahx}-[dY][dW]NAF[azaGly]L[Api](Gly(N-(3-F-4-Me-benzyl)))L-NH2) and print it.
Result: < 0.01 µM

Attention now turns to another entry.
Q: Supply Ki value. Item: CC(C)C[C@H](NC(=O)NNC(=O)[C@H](Cc1ccccc1)NC(=O)[C@@H](NC(=O)[C@H](CC(N)=O)NC(=O)[C@@H](Cc1c[nH]c2ccccc12)NC(=O)[C@@H](Cc1ccc(O)cc1)NC(=O)c1ccc(CNC(=O)CCCCCNC(=O)CN2CCN(CC(=O)O)CCN(CC(=O)O)CCN(CC(=O)O)CC2)cc1)[C@@H](C)O)C(=O)NC1(C(=O)N[C@@H](Cc2c[nH]c3ccccc23)C(N)=O)CCN(C(=N)N)CC1 [Compound 270] ({DOTA-Ahx-4Amb}-[dY][dW]NTF[azaGly]L[Api(1-amidino)]W-NH2)
Result: < 0.01 µM

====

# STUDY_SYSTEM: human kisspeptin receptor (Homo sapiens (Human))
# ASSAY_SUMMARY: Human KISS1R binding assay (membrane competition binding)
# CONDITION_INFO: 90 min at room temperature; competition with 0.2 nM [125I]-metastin (45-54); Flp-In T-Rex 293 kisspeptin membranes; metal complexes nonradioactive Ga, In, Lu; read-out: hKiSSR Binding Ki (90 min)
pKi: −log10 of the molar value. Numbered stars: 1 amine (or outer) side, 2 acyl side, 3 side chain; on linkers, the order of the positions; unused ones are H or OH. Square brackets hold non-standard residues; d marks the D form. Peptide text beside a SMILES is read from it. * marks the point of attachment. DOTA = O=C(O)CN1CCN(CC(=O)O)CCN(CC(=O)*)CCN(CC(=O)O)CC1; Gly(N-(3-F-4-Me-benzyl)) = Cc1ccc(CNCC(=O)*)cc1F; Butanoyl(4-(4-I-phenyl)) = O=C(CCCc1ccc(I)cc1)*; Api(1-amidino) = N=C(N)N1CCC(N)(C(=O)O)CC1; d(γGlu) = O=C(O)[C@@H](CCC(=O)[*:2])N[*:1]; d2Nal = N[C@H](Cc1ccc2ccccc2c1)C(=O)O; Api = NC1(C(=O)O)CCNCC1; Ahx = NCCCCCC(=O)O; azaGly = NNC(=O)O; Sar = CNCC(=O)O
OBSERVATION_TYPE: pKi

Q: # assay system human kisspeptin receptor (Homo sapiens (Human)): give pKi of CNCC(=O)N1CCC(NC(=O)[C@H](CC(C)C)NC(=O)NNC(=O)[C@H](Cc2ccccc2)NC(=O)[C@@H](NC(=O)[C@H](CC(N)=O)NC(=O)[C@@H](Cc2ccc3ccccc3c2)NC(=O)[C@@H](Cc2ccc(O)cc2)NC(=O)CCCc2ccc(I)cc2)[C@@H](C)O)(C(=O)N[C@@H](Cc2c[nH]c3ccccc23)C(N)=O)CC1 [Compound 395] ({Butanoyl(4-(4-I-phenyl))}-[dY][d2Nal]NTF[azaGly]L[Api](Sar)W-NH2)
Result: > 8.00

Q: Recall the reported pKi of Cc1ccc(CNCC(=O)N2CCC(NC(=O)[C@H](CC(C)C)NC(=O)NNC(=O)[C@H](Cc3ccccc3)NC(=O)CC[C@@H](NC(=O)CN3CCN(CC(=O)O)CCN(CC(=O)O)CCN(CC(=O)O)CC3)C(=O)O)(C(=O)N[C@@H](Cc3c[nH]c4ccccc34)C(N)=O)CC2)cc1F [Compound 156] ({DOTA-d(γGlu)}-F[azaGly]L[Api](Gly(N-(3-F-4-Me-benzyl)))W-NH2) when tested on human kisspeptin receptor (Homo sapiens (Human)).
Result: > 8.00

Next:
Q: State measured pKi of the compound CC(C)C[C@H](NC(=O)NNC(=O)[C@H](Cc1ccccc1)NC(=O)[C@@H](NC(=O)[C@H](CC(N)=O)NC(=O)[C@@H](Cc1ccc2ccccc2c1)NC(=O)[C@@H](Cc1ccc(O)cc1)NC(=O)CCCCCNC(=O)CN1CCN(CC(=O)O)CCN(CC(=O)O)CCN(CC(=O)O)CC1)[C@@H](C)O)C(=O)NC1(C(=O)N[C@@H](Cc2ccc(O)cc2)C(N)=O)CCN(C(=N)N)CC1 [Compound 185] ({DOTA-Ahx}-[dY][d2Nal]NTF[azaGly]L[Api(1-amidino)]Y-NH2) with human kisspeptin receptor (Homo sapiens (Human)).
Result: > 8.00
